# System: Heliothis virescens
# ASSAY_REMARKS: Heliothis virescens ovo-larvicide, feeding/contact activity on eggs on artificial diet
# Assay type: in vivo
# CONDITION: 144 h, fresh eggs (0 to 24 hours old) on artificial diet, 6 days incubation, read-out: Insecticidal activity (EC80 ppm) Hv
EC80 by entry:

- COMPOUND: "CC(C)(C)/C(NC(=O)c1c(F)cccc1F)=C(\\C#N)c1ccccc1 [drawing 446]"
  COMPARISON_SYMBOL: ">"
  EC80 / µg/mL: 100
- COMPOUND: "COc1cccc(C(=O)N/C(=C(/C#N)c2cc(C)cc(C)c2)C(C)(C)C)c1C [drawing 448]"
  COMPARISON_SYMBOL: "="
  EC80 / µg/mL: 100
- COMPOUND: "COc1cccc(C(=O)N/C(=C(/C#N)c2cccc(C)c2)C(C)(C)C)c1C [drawing 449]"
  COMPARISON_SYMBOL: "="
  EC80 / µg/mL: 200
- COMPOUND: "Cc1cc(C)cc(/C(C#N)=C(\\NC(=O)c2cccc(Br)c2C)C(C)(C)C)c1 [drawing 445]"
  COMPARISON_SYMBOL: ">"
  EC80 / µg/mL: 50

----------
EC80 by entry:
# Tested on: Heliothis virescens
# ASSAY_REMARKS: Heliothis virescens ovo-larvicide, feeding/contact activity on eggs on artificial diet
# Format: in vivo
# CONDITION: 144 h, fresh eggs (0 to 24 hours old) on artificial diet, 6 days incubation, read-out: Insecticidal activity (EC80 ppm) Hv
EXPERIMENTAL_ENDPOINT: EC80 (µg/mL)

- COMPOUND: "CCc1ccc(C(=O)N/C(=C(/C#N)c2ccccc2)C(C)(C)C)cc1 [drawing 450]"
  TARGET: "Heliothis virescens"
  EXPERIMENTAL_ENDPOINT: "EC80"
  ENDPOINT_UNIT: "µg/mL"
  COMPARISON_SYMBOL: ">"
  RECORDED_MEASUREMENT: 100
- COMPOUND: "Cc1cccc(/C(C#N)=C(\\NC(=O)c2cccc(Br)c2C)C(C)(C)C)c1 [drawing 444]"
  TARGET: "Heliothis virescens"
  EXPERIMENTAL_ENDPOINT: "EC80"
  ENDPOINT_UNIT: "µg/mL"
  COMPARISON_SYMBOL: "="
  RECORDED_MEASUREMENT: 200
- COMPOUND: "Cc1cc(C)cc(/C(C#N)=C(\\NC(=O)c2cccc(Cl)c2C)C(C)(C)C)c1 [drawing 443]"
  TARGET: "Heliothis virescens"
  EXPERIMENTAL_ENDPOINT: "EC80"
  ENDPOINT_UNIT: "µg/mL"
  COMPARISON_SYMBOL: "="
  RECORDED_MEASUREMENT: 5
- COMPOUND: "Cc1cc(C)cc(/C(C#N)=C(\\NC(=O)c2cccc(C)c2C)C(C)(C)C)c1 [drawing 447]"
  TARGET: "Heliothis virescens"
  EXPERIMENTAL_ENDPOINT: "EC80"
  ENDPOINT_UNIT: "µg/mL"
  COMPARISON_SYMBOL: "="
  RECORDED_MEASUREMENT: 50

----------
# TARGET: truncated Manduca EcR-VP16 (Manduca sexta, UniProt P49883)
# Construct: A truncated Manduca EcR containing domains C, D and E of the receptor was constructed as follows; engineered start Met (in-frame ATG) (N); expressed in transfected cells; host or cells: S2 Drosophila cells (ATCC CRL-1963), transiently transfected with plasmid MMV (pPacU backbone)
# Sequence (P49883 112-535, added parts left off): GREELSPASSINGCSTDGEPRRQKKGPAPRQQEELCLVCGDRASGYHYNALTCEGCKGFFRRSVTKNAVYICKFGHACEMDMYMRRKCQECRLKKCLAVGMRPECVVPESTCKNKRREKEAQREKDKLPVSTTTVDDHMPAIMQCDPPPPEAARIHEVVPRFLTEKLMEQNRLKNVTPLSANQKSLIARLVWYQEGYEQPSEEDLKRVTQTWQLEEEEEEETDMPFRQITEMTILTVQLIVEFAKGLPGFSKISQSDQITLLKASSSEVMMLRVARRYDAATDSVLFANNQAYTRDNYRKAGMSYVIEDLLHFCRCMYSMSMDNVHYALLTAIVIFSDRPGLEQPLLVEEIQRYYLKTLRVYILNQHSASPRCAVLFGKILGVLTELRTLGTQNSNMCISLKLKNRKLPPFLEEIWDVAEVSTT
# Sequence (P20153 whole entry partner, the tested form may be a part): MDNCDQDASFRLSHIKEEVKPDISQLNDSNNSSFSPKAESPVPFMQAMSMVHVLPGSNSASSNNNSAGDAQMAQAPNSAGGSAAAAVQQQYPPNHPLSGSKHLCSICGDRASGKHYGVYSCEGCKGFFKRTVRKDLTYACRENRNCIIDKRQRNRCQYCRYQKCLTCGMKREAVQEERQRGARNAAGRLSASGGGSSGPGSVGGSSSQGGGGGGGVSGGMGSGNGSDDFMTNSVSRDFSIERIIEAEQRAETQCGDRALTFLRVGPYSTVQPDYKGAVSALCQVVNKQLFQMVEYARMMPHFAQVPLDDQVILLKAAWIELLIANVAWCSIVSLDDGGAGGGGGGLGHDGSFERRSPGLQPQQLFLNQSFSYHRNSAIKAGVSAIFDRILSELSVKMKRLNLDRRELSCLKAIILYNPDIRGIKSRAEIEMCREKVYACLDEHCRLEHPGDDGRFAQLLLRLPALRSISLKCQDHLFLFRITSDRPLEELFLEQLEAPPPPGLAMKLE
# ASSAY_REMARKS: Cell-based luciferase reporter assay of transcriptional activation by EcR receptor plasmid (MMV) in S2 Drosophila cells
# CONDITION: ligand 2 μM, harvested 24 hours after addition, ratio relative to reporter construct without ligand
Gene switch activity fold induction by entry:

- COMPOUND: "CC(C)(C)/C(NC(=O)c1c(F)cccc1F)=C(\\C#N)c1ccccc1 [drawing 459]"
  ENDPOINT_UNIT: "fold induction"
  Gene switch activity fold induction: 29
- COMPOUND: "COc1cccc(C(=O)N/C(=C(/C#N)c2ccccc2)C(C)(C)C)c1C"
  ENDPOINT_UNIT: "fold induction"
  Gene switch activity fold induction: 913
- COMPOUND: "COc1cccc(C(=O)N/C(=C(/C#N)c2cc(C)cc(C)c2)C(C)(C)C)c1C [drawing 462]"
  ENDPOINT_UNIT: "fold induction"
  Gene switch activity fold induction: 314
- COMPOUND: "Cc1cccc(/C(C#N)=C(\\NC(=O)c2cccc(Br)c2C)C(C)(C)C)c1 [drawing 457]"
  ENDPOINT_UNIT: "fold induction"
  Gene switch activity fold induction: 1012
- COMPOUND: "Cc1cc(C)cc(/C(C#N)=C(\\NC(=O)c2cccc(Cl)c2C)C(C)(C)C)c1 [drawing 453]"
  ENDPOINT_UNIT: "fold induction"
  Gene switch activity fold induction: 225
- COMPOUND: "Cc1cccc(/C(C#N)=C(\\NC(=O)c2cccc(C)c2C)C(C)(C)C)c1"
  ENDPOINT_UNIT: "fold induction"
  Gene switch activity fold induction: 66
- COMPOUND: "Cc1cc(C)cc(/C(C#N)=C(\\NC(=O)c2cccc(Br)c2C)C(C)(C)C)c1 [drawing 458]"
  ENDPOINT_UNIT: "fold induction"
  Gene switch activity fold induction: 1121
- COMPOUND: "Cc1c(Br)cccc1C(=O)N/C(=C(/C#N)c1ccccc1)C(C)(C)C"
  ENDPOINT_UNIT: "fold induction"
  Gene switch activity fold induction: 1112
- COMPOUND: "Cc1cc(C)cc(/C(C#N)=C(\\NC(=O)c2cccc(Cl)c2Cl)C(C)(C)C)c1"
  ENDPOINT_UNIT: "fold induction"
  Gene switch activity fold induction: 1145
- COMPOUND: "Cc1cc(C)cc(/C(C#N)=C(\\NC(=O)c2cccc(C)c2C)C(C)(C)C)c1 [drawing 460]"
  ENDPOINT_UNIT: "fold induction"
  Gene switch activity fold induction: 893
- COMPOUND: "Cc1cccc(C(=O)N/C(=C(/C#N)c2ccccc2)C(C)(C)C)c1C"
  ENDPOINT_UNIT: "fold induction"
  Gene switch activity fold induction: 636
- COMPOUND: "Cc1c(Cl)cccc1C(=O)N/C(=C(/C#N)c1ccccc1)C(C)(C)C"
  ENDPOINT_UNIT: "fold induction"
  Gene switch activity fold induction: 191
- COMPOUND: "COc1cccc(C(=O)N/C(=C(/C#N)c2cccc(C)c2)C(C)(C)C)c1C [drawing 463]"
  ENDPOINT_UNIT: "fold induction"
  Gene switch activity fold induction: 364
- COMPOUND: "CCc1ccc(C(=O)N/C(=C(/C#N)c2ccccc2)C(C)(C)C)cc1 [drawing 464]"
  ENDPOINT_UNIT: "fold induction"
  Gene switch activity fold induction: 394
- COMPOUND: "CCc1c(OC)cccc1C(=O)N/C(=C(/C#N)c1ccccc1)C(C)(C)C"
  ENDPOINT_UNIT: "fold induction"
  Gene switch activity fold induction: 239
